system: OCI-AML2; test: cell viability relative to vehicle control; higher = less cytotoxic; conditions: 10 µM; SRSF2 genotype: P95H/wt;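 note: after 48 h exposure read by CellTiter-Glo luminescence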
Structures can show the parent of a compound that is named as a salt.
// assign met if cell viability falls strictly below 90%, else not met (ties count as not met)

The following compounds have reported results that may help.
• CCOC(=O)/C=C/c1ccc(O)c(OC)c1 [Ethyl ferulate] = not met
• CCCCOc1ccc(C(=O)CCN2CCCCC2)cc1 [Dyclonine hydrochloride] = met
• O=C(Nc1ccc(Cl)cc1)C1CCCN(C(=O)c2cccc(-c3ccco3)c2)C1 (stereo not drawn) = met
• O=C(c1ccc(Nc2nccc(-c3cc4ccccc4s3)n2)cc1)N1CCC(N2CCCC2)CC1 = met
• c1ccc(-c2ccc(C(c3ccccc3)n3ccnc3)cc2)cc1 (stereo not drawn) = met
• CO/N=C(\C(=O)N[C@@H]1C(=O)N2C(C(=O)O)=C(CSc3nc(C)c(CC(=O)O)s3)CS[C@H]12)c1csc(N)n1 [Cefodizime Sodium] = not met

Please examine the following record next.
Prompt line: hey, is cell viability for N#Cc1c(NC(=O)c2cccc3ccccc23)sc2c1CCCC2 lower than 90% or not?
Response line: met

---

system: K562; test: cell viability relative to vehicle control; higher = less cytotoxic; conditions: 10 µM; SRSF2 genotype: SRSF2 wt/wt
Where a name gives a salt, the structure may show the parent alone.
experimentalReadout: cell viability (%)
Supply the numeric figure in %, leaving out any unit text.

Reference set, count: 5
• NNC(=O)c1ccncc1 = 112
• COC(=O)[C@H](CC(C)C)NC(=O)c1ccc(NC[C@@H](N)CS)cc1-c1cccc2ccccc12 [GGTI 298 TFA salt] = 31.9
• CC(C)=CCc1cc2c(cc1O)oc(=O)c1c3ccc(O)cc3oc21 = 95.2
• COc1ccccc1 = 102
• CC12CCC(O)CC1=CCC1C2CCC2(C)C(C(O)CC(O)(C(F)(F)F)C(F)(F)F)CCC12 (stereo not given) = 98.3

Prompt line: Tell me cell viability reported for C=CC(=O)Nc1cc2c(Nc3ccc(F)c(Cl)c3)ncnc2cc1OCCCN1CCOCC1
Response line: 61.7

Prompt line: Tell me cell viability reported for O=C(O[C@@H]1Cc2c(O)cc(O)cc2O[C@H]1c1cc(O)c(O)c(O)c1)c1cc(O)c(O)c(O)c1 [Gallocatechin gallate]
Response line: 71

Prompt line: Tell me cell viability reported for C[C@]12C=CC(=O)N[C@@H]1CC[C@@H]1[C@@H]2CC[C@]2(C)[C@@H](C(=O)Nc3cc(C(F)(F)F)ccc3C(F)(F)F)CC[C@@H]12 [Dutasteride]
Response line: 95

Prompt line: Tell me cell viability reported for Cc1ccccc1N1CCN(CCc2nnc3n2CCCC3)CC1 [Dapiprazole Hydrochloride]
Response line: 93.2

Prompt line: Tell me cell viability reported for Nc1cc(C(Cl)=C(Cl)Cl)c(S(N)(=O)=O)cc1S(N)(=O)=O
Response line: 99.7

Prompt line: Tell me cell viability reported for C[C@H]1[C@H](NC(=O)/C(=N\OC(C)(C)C(=O)O)c2csc(N)n2)C(=O)N1S(=O)(=O)O
Response line: 109

Prompt line: Tell me cell viability reported for C[C@@H]1[C@H](O)[C@@H](C)/C=C/C=C/C=C/C=C/C=C/C=C/C=C/[C@H](O[C@@H]2O[C@H](C)[C@@H](O)[C@H](N)[C@@H]2O)C[C@@H]2O[C@](O)(C[C@@H](O)C[C@@H](O)[C@H](O)CC[C@@H](O)C[C@@H](O)CC(=O)O[C@H]1C)C[C@H](O)[C@H]2C(=O)O
Response line: 104

Prompt line: Tell me cell viability reported for COc1cc(/C=C/C(=O)CC(=O)/C=C/c2ccc(O)c(OC)c2)ccc1O
Response line: 91.9

Prompt line: Tell me cell viability reported for CN1CCc2c(c3ccccc3n2Cc2ccc(C(=O)NO)cc2)C1 [Tubastatin A hydrochloride]
Response line: 84.6

Prompt line: Tell me cell viability reported for C=CCNC(N)=S
Response line: 107

Source listed as the supplement of paper PMC10981050.
